Recorded Kd by entry
Target: Plexin B1
Test: KD (nM)
From the text: Table printed on a drawing sheet, FIG. 2 Head of the field: KD (nM) The sequences from top to bottom are SEQ ID NO: 40, SEQ ID NO: 31, SEQ ID NO: 37, SEQ ID NO: 30, SEQ ID NO: 38, and SEQ ID NO: 39. First copying reader's note: The sequences are only the variable region of the cyclic scaffold drawn in panel b, DW(Variable region)CS-NH2 closed by a thioether bridge. […]
No end group written: not given here.
ASSAY ENDPOINT: Kd (nM)

SUBSTANCE	ASSAY ENDPOINT	EXPERIMENTAL VALUE
NGTLSWQTYSHL [P8]	Kd	689
RVRVERWTGKLI (not fully specified) [P3]	Kd	33.7
AVSNLPPRPHITYIE [P1]	Kd	700
wRPRVARWTGQITYC [P6]	Kd	3.5
RPRAARWTGQIIY (not fully specified) [P5]	Kd	77.1
